Tested on: TGF/SMAD Signaling Pathway SBE Reporter—HEK293 Cell Line
Assay: Luciferase screen, TGF/SMAD SBE reporter HEK293 cells stimulated with TGFβ
Type: cell-based
Details: Homo sapiens; SBE reporter-HEK293 cells, TGFβ 10 ng/mL, 18 hours; read-out: Luciferase IC50
Protocol: For the data in Table 1, the Bight-Glo™ Luciferase Assay System from Promega was used with TGF/SMAD Signaling Pathway SBE Reporter—HEK293 Cell Line from BPSbioscience. […] The luciferase assay was run using ONE-Step™ Luciferase Assay System by adding 100 al of ONE-Step™ Luciferase reagent per well, rocking at room temperature for ~15 to 30 minutes and measuring luminescence using a luminometer. […]
pIC50: −log10 of the molar value.
Reported pIC50 values for a set of compounds
MEASURED_PARAMETER: pIC50

Cn1ccc(-c2noc(-c3cnc4c(c3)C[C@H](O)C(C)(C)O4)n2)n1 [Example 18]; 7.55
CC1(C)Oc2ncc(-c3nc(-c4ncc(Cl)s4)no3)cc2C[C@@H]1O [Example 23]; 6.62
Cc1cnc(-c2noc(-c3cnc4c(c3)C[C@H](O)C(C)(C)O4)n2)s1 [Example 24]; 6.09
CC1(C)Oc2ncc(-c3nc(-c4ccc(Cl)cc4)no3)cc2CC1O (stereo in doubt) [Example 13]; 6.81
CC1(C)CC(O)c2cc(-c3nc(-c4ccc(Br)cc4)no3)cnc2O1 (centres unmarked) [Example 5]; 7.07
CO[C@H]1Cc2cc(-c3nc(-c4ccc(Cl)cc4)no3)cnc2OC1(C)C [Example 19]; 6.47
CC1(C)Oc2ncc(-c3nc(-c4cc(Cl)cc(Cl)c4)no3)cc2C[C@H]1O [Example 40]; 6.07
CC1(C)Oc2ncc(-c3nc(-c4nccs4)no3)cc2CC1O (stereo in doubt) [Example 16]; 5.95
C[C@H]1CCc2cc(-c3nc(-c4ccc(Br)cc4)no3)cnc2O1 [Example 3]; 6.63
C[C@@H]1CCc2cc(-c3nc(-c4ccc(Br)cc4)no3)cnc2O1 [Example 4]; 6.90
CC1(C)Oc2ncc(-c3nc(-c4cccc(Cl)c4)no3)cc2C[C@@H]1O [Example 30]; 6.87
CC1(C)Oc2ncc(-c3nc(-c4nc(Cl)cs4)no3)cc2C[C@H]1O [Example 27]; 6.15
Cc1cc(-c2noc(-c3cnc4c(c3)C[C@@H](O)C(C)(C)O4)n2)ccc1Cl [Example 37]; 7.30
CC1(C)C[C@H](O)c2cc(-c3nc(-c4ccc(Br)cc4)no3)cnc2O1 (single isomer, unassigned) [Example 11]; 7.24
CC1(C)Oc2ncc(-c3nc(-c4cccc(Cl)c4)no3)cc2C[C@H]1O [Example 31]; 6.82
CC1(C)Oc2ncc(-c3nc(-c4ncc(Cl)s4)no3)cc2C[C@H]1O [Example 25]; 6.69
CC1(C)C[C@@H](O)c2cc(-c3nc(-c4ccc(Br)cc4)no3)cnc2O1 (single isomer, unassigned) [Example 10]; 6.63

FYI, the data here is from patent US12673956B2.
